Measured Ki accompanies every entry in the list below.
Target: Sushi domains (SD1/2) protein
Assay: Fluorescence polarization (FP) competition assay with AJAP-1probe, calculated Ki
Assay type: binding
Settings: Table 16, ncAAs incorporated peptides; read-out: Ki (nM) mean ± SEM
Non-standard residues stand in square brackets, D forms with d. Residues, ends and D or L forms follow the SMILES beside them. 2Nal = N[C@@H](Cc1ccc2ccccc2c1)C(=O)O
Observation Type: Ki

>  <Compound>
CCOc1ccc(C[C@H](NC(=O)[C@H](CC(=O)O)NC(=O)[C@H](CC(=O)O)NC(=O)[C@H](CC(=O)O)NC(=O)[C@H](CCC(=O)O)NC(C)=O)C(=O)N[C@H](C(=O)N[C@@H](CC(=O)O)C(=O)N[C@@H](Cc2c[nH]c3ccccc23)C(=O)N[C@@H](Cc2ccc(O)cc2)C(=O)N[C@@H](CC(=O)O)C(=O)N[C@@H](CO)C(=O)N[C@@H](CC(=O)O)C(=O)N[C@@H](CC(=O)O)C(=O)N[C@@H](CC(=O)O)C(N)=O)[C@@H](C)CC)cc1 [Peptide 32]

>  <Target System>
Sushi domains (SD1/2) protein

>  <Result>
5.3 nM

$$$$
>  <Compound>
CC(=O)N[C@@H](CCC(=O)O)C(=O)N[C@@H](CC(=O)O)C(=O)N[C@@H](CC(=O)O)C(=O)N[C@@H](CO)C(=O)N[C@@H](CC(=O)O)C(=O)N[C@H](C(=O)N[C@@H](Cc1c[nH]c2ccccc12)C(=O)N[C@@H](Cc1ccc2ccccc2c1)C(=O)NCC(=O)NCC(=O)N[C@@H](C)C(=O)N[C@@H](CC(=O)O)C(=O)N[C@H](C(=O)N[C@@H](CC(=O)O)C(N)=O)[C@@H](C)O)C(C)C [EDDSDVW(2Nala)GGADTD] (Ac-EDDSDVW[2Nal]GGADTD-NH2)

>  <Target System>
Sushi domains (SD1/2) protein

>  <Result>
814 nM

$$$$

====

Biological target: Sushi domains (SD1/2) protein
Assay: Fluorescence polarization (FP) competition assay with AJAP-1probe, calculated Ki
Format: binding
Conditions: Table 8, Ala-, D-amino acids and N-methylation scans of AJAP-1WT; read-out: Ki (nM) mean ± SEM
Non-standard residues stand in square brackets, D forms with d. Residues, ends and D or L forms follow the SMILES beside them. NMeW = CN[C@@H](Cc1c[nH]c2ccccc12)C(=O)O; NMeF = CN[C@@H](Cc1ccccc1)C(=O)O; NMeE = CN[C@@H](CCC(=O)O)C(=O)O; NMeD = CN[C@@H](CC(=O)O)C(=O)O; Sar = CNCC(=O)O
Doc: threshold 40 nM (exclusive). Items with Ki beneath it return 1; others return -1.

>  <Compound>
CC[C@H](C)[C@H](NC(=O)[C@H](Cc1ccccc1)NC(=O)[C@H](CCC(=O)O)NC(=O)[C@H](C)NC(=O)[C@H](CCC(=O)O)NC(C)=O)C(=O)N[C@@H](C)C(=O)N[C@@H](Cc1c[nH]c2ccccc12)C(=O)NCC(=O)N1CCC[C@H]1C(=O)N[C@H](C(=O)NCC(=O)N[C@@H](CC(=O)O)C(=O)N[C@@H](CCC(=O)O)C(=O)N[C@@H](CC(=O)O)C(N)=O)[C@@H](C)O [EAEFIAWGPTGDED] (Ac-EAEFIAWGPTGDED-NH2)

>  <Target System>
Sushi domains (SD1/2) protein

>  <Label>
1

$$$$
>  <Compound>
CC[C@H](C)[C@H](NC(=O)[C@H](Cc1ccccc1)NC(=O)[C@H](CCC(=O)O)NC(=O)[C@@H](NC(=O)[C@H](CCC(=O)O)NC(C)=O)[C@@H](C)O)C(=O)N[C@@H](C)C(=O)N(C)[C@@H](Cc1c[nH]c2ccccc12)C(=O)NCC(=O)N1CCC[C@H]1C(=O)N[C@H](C(=O)NCC(=O)N[C@@H](CC(=O)O)C(=O)N[C@@H](CCC(=O)O)C(=O)N[C@@H](CC(=O)O)C(N)=O)[C@@H](C)O [ETEFIA(N-Me-W)GPTGDED] (Ac-ETEFIA[NMeW]GPTGDED-NH2)

>  <Target System>
Sushi domains (SD1/2) protein

>  <Label>
-1

$$$$
>  <Compound>
CC[C@H](C)[C@H](NC(=O)[C@H](Cc1ccccc1)NC(=O)[C@H](CCC(=O)O)NC(=O)[C@@H](NC(=O)[C@H](CCC(=O)O)NC(C)=O)[C@@H](C)O)C(=O)N[C@@H](C)C(=O)N[C@@H](Cc1c[nH]c2ccccc12)C(=O)NCC(=O)N1CCC[C@H]1C(=O)N[C@H](C(=O)NCC(=O)N(C)[C@@H](CC(=O)O)C(=O)N[C@@H](CCC(=O)O)C(=O)N[C@@H](CC(=O)O)C(N)=O)[C@@H](C)O (Ac-ETEFIAWGPTG[NMeD]ED-NH2)

>  <Target System>
Sushi domains (SD1/2) protein

>  <Label>
-1

$$$$
>  <Compound>
CC[C@H](C)[C@H](NC(=O)[C@H](Cc1ccccc1)NC(=O)[C@H](CCC(=O)O)NC(=O)[C@@H](NC(=O)[C@H](C)NC(C)=O)[C@@H](C)O)C(=O)N[C@@H](C)C(=O)N[C@@H](Cc1c[nH]c2ccccc12)C(=O)NCC(=O)N1CCC[C@H]1C(=O)N[C@H](C(=O)NCC(=O)N[C@@H](CC(=O)O)C(=O)N[C@@H](CCC(=O)O)C(=O)N[C@@H](CC(=O)O)C(N)=O)[C@@H](C)O [ATEFIAWGPTGDED] (Ac-ATEFIAWGPTGDED-NH2)

>  <Target System>
Sushi domains (SD1/2) protein

>  <Label>
-1

$$$$
>  <Compound>
CC[C@H](C)[C@H](NC(=O)[C@H](Cc1ccccc1)N(C)C(=O)[C@H](CCC(=O)O)NC(=O)[C@@H](NC(=O)[C@H](CCC(=O)O)NC(C)=O)[C@@H](C)O)C(=O)N[C@@H](C)C(=O)N[C@@H](Cc1c[nH]c2ccccc12)C(=O)NCC(=O)N1CCC[C@H]1C(=O)N[C@H](C(=O)NCC(=O)N[C@@H](CC(=O)O)C(=O)N[C@@H](CCC(=O)O)C(=O)N[C@@H](CC(=O)O)C(N)=O)[C@@H](C)O [ETE(N-Me-F)IAWGPTGDED] (Ac-ETE[NMeF]IAWGPTGDED-NH2)

>  <Target System>
Sushi domains (SD1/2) protein

>  <Label>
-1

$$$$
>  <Compound>
CC[C@H](C)[C@H](NC(=O)[C@H](Cc1ccccc1)NC(=O)[C@H](CCC(=O)O)NC(=O)[C@@H](NC(=O)[C@H](CCC(=O)O)NC(C)=O)[C@@H](C)O)C(=O)N[C@@H](C)C(=O)N[C@@H](Cc1c[nH]c2ccccc12)C(=O)NCC(=O)N1CCC[C@H]1C(=O)N[C@H](C(=O)NCC(=O)N[C@@H](CC(=O)O)C(=O)N[C@@H](CCC(=O)O)C(=O)N[C@@H](C)C(N)=O)[C@@H](C)O (Ac-ETEFIAWGPTGDEA-NH2)

>  <Target System>
Sushi domains (SD1/2) protein

>  <Label>
-1

$$$$
>  <Compound>
CC[C@H](C)[C@H](NC(=O)[C@H](Cc1ccccc1)NC(=O)[C@H](CCC(=O)O)NC(=O)[C@@H](NC(=O)[C@H](CCC(=O)O)NC(C)=O)[C@@H](C)O)C(=O)N[C@@H](C)C(=O)N[C@@H](Cc1c[nH]c2ccccc12)C(=O)NCC(=O)N1CCC[C@H]1C(=O)N[C@H](C(=O)NCC(=O)N[C@@H](C)C(=O)N[C@@H](CCC(=O)O)C(=O)N[C@@H](CC(=O)O)C(N)=O)[C@@H](C)O [ETEFIAWGPTGAED] (Ac-ETEFIAWGPTGAED-NH2)

>  <Target System>
Sushi domains (SD1/2) protein

>  <Label>
-1

$$$$
>  <Compound>
CC[C@H](C)[C@H](NC(=O)[C@H](Cc1ccccc1)NC(=O)[C@H](CCC(=O)O)NC(=O)[C@@H](NC(=O)[C@H](CCC(=O)O)NC(C)=O)[C@@H](C)O)C(=O)N[C@@H](C)C(=O)N[C@@H](Cc1c[nH]c2ccccc12)C(=O)NCC(=O)N1CCC[C@H]1C(=O)N[C@H](C(=O)N(C)CC(=O)N[C@@H](CC(=O)O)C(=O)N[C@@H](CCC(=O)O)C(=O)N[C@@H](CC(=O)O)C(N)=O)[C@@H](C)O (Ac-ETEFIAWGPT[Sar]DED-NH2)

>  <Target System>
Sushi domains (SD1/2) protein

>  <Label>
-1

$$$$
>  <Compound>
CC[C@H](C)[C@H](NC(=O)[C@H](Cc1ccccc1)NC(=O)[C@H](CCC(=O)O)NC(=O)[C@@H](NC(=O)[C@H](CCC(=O)O)N(C)C(C)=O)[C@@H](C)O)C(=O)N[C@@H](C)C(=O)N[C@@H](Cc1c[nH]c2ccccc12)C(=O)NCC(=O)N1CCC[C@H]1C(=O)N[C@H](C(=O)NCC(=O)N[C@@H](CC(=O)O)C(=O)N[C@@H](CCC(=O)O)C(=O)N[C@@H](CC(=O)O)C(N)=O)[C@@H](C)O [(N-Me-E)TEFIAWGPTGDED] (Ac-[NMeE]TEFIAWGPTGDED-NH2)

>  <Target System>
Sushi domains (SD1/2) protein

>  <Label>
1

$$$$
